assay: Example 1 plasma pharmacokinetics (LC/MS); details: human, plasma, intravenous, terminal half-life, range, after the end of the 4-hour CIVI
MEASURE: half-life

Looking up CN1CCC(c2c(O)cc(O)c3c(=O)cc(-c4ccccc4Cl)oc23)[C@H](O)C1.Cl (stereo partly shown) , I found its half-life recorded as 1.1 to 42.5 h

====

assay: Example 2 clinical trial: plasma Cmax; type: in vivo; conditions: human, intravenous, cohort 3 at the escalated doses (30 mg/m^2 + 50 mg/m^2)
MEASURE: Cmax at 4.5 hr (nM)
Report only the number, with the unit nM understood.

Looking up CN1CCC(c2c(O)cc(O)c3c(=O)cc(-c4ccccc4Cl)oc23)[C@H](O)C1.Cl (stereo partly shown) , I found its Cmax at 4.5 hr recorded as 1540

====

assay: Example 1 plasma pharmacokinetics (LC/MS); settings: human, plasma, intravenous, t1/2, 30 + 30 mg/m^2 (n = 20), Mean ± S.D.
MEASURE: half-life (h)
Report only the number, with the unit h understood.

Looking up CN1CCC(c2c(O)cc(O)c3c(=O)cc(-c4ccccc4Cl)oc23)[C@H](O)C1.Cl (stereo partly shown) , I found its half-life recorded as 14

====

assay: Example 2 clinical trial: plasma Cmax; type: in vivo; settings: human, intravenous, cohort 1, 30 mg/m^2 + 30 mg/m^2
MEASURE: Cmax at 0.5 hr (µM)
Report only the number, with the unit µM understood.

Looking up CN1CCC(c2c(O)cc(O)c3c(=O)cc(-c4ccccc4Cl)oc23)[C@H](O)C1.Cl (stereo partly shown) , I found its Cmax at 0.5 hr recorded as 2.08

====

Assay: Example 2 clinical trial: plasma Cmax
Assay type: in vivo
Settings: human, intravenous, cohort 1, 30 mg/m^2 + 30 mg/m^2
From the text: Fifty-six patients were enrolled in this clinical trial with the median prior therapies being 4 and the majority being fludarabine-refractory. […] Cohort 1 was expanded with aggressive TLS prophylaxis. Of the 20 patients in cohort 1, 8 (40%) attained a partial response (PR) with median response duration exceeding 12 months. […] Cohort 3 and 4 did this (Table 4) with acceptable toxicity. Cohort 3 included 19 patients of whom 14 were escalated with the 5th dose. […]
MEASURE: Cmax at 4.5 hr (nM)
Report only the number, with the unit nM understood.

Looking up CN1CCC(c2c(O)cc(O)c3c(=O)cc(-c4ccccc4Cl)oc23)[C@H](O)C1.Cl (stereo partly shown) [Flavopiridol] , I found its Cmax at 4.5 hr recorded as 960

Origin of values: patent US20110251240A1
